Each entry below lists one item and its recorded AC50 value.
# system under test: UniProtKB P21397
# Sequence (P21397 whole entry): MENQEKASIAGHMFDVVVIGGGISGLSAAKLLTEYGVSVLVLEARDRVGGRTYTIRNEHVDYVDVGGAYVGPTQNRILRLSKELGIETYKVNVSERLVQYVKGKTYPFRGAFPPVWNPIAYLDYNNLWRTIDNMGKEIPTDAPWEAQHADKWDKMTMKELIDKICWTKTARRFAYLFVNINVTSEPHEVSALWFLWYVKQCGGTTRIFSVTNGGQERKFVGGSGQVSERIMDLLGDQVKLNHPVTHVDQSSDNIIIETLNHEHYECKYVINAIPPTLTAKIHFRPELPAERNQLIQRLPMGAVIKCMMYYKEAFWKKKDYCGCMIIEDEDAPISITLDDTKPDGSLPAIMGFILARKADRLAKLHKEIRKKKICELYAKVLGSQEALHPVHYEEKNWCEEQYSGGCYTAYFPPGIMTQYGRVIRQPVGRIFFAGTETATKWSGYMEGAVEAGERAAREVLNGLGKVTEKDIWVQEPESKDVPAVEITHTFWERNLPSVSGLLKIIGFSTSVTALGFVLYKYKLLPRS
# Assay type: functional

compound	AC50
C[C@H](CS)C(=O)N1CCC[C@H]1C(=O)O	> 10 µM
CCN(CC)CCn1c(=O)c(Cc2ccc(OC)cc2)nc2ccccc21	> 30 µM
CCC1(c2ccccc2)C(=O)NCNC1=O	> 10 µM
C[C@]12CCC(=O)C=C1CC[C@H]1[C@@H]3CC[C@](O)(C(=O)CO)[C@@]3(C)C[C@H](O)[C@@]12F	> 10 µM
CCC[C@@]1(CCc2ccccc2)CC(O)=C([C@H](CC)c2cccc(NS(=O)(=O)c3ccc(C(F)(F)F)cn3)c2)C(=O)O1	> 30 µM
CC(C)(C)NCC(O)COc1cccc2c1CC(O)C(O)C2 (centres undefined)	> 10 µM
CC(C)(C)NCC(O)COc1ccccc1C#N (centres undefined)	14 µM
O=C(c1ccccc1)c1ccc2n1CCC2C(=O)O (centres undefined)	> 30 µM
CN1C(=O)CN=C(c2ccccc2F)c2cc([N+](=O)[O-])ccc21	> 10 µM

* * *

Each entry below lists one item and its recorded AC50 value.
# system under test: UniProt P06401
# Sequence (P06401 whole entry): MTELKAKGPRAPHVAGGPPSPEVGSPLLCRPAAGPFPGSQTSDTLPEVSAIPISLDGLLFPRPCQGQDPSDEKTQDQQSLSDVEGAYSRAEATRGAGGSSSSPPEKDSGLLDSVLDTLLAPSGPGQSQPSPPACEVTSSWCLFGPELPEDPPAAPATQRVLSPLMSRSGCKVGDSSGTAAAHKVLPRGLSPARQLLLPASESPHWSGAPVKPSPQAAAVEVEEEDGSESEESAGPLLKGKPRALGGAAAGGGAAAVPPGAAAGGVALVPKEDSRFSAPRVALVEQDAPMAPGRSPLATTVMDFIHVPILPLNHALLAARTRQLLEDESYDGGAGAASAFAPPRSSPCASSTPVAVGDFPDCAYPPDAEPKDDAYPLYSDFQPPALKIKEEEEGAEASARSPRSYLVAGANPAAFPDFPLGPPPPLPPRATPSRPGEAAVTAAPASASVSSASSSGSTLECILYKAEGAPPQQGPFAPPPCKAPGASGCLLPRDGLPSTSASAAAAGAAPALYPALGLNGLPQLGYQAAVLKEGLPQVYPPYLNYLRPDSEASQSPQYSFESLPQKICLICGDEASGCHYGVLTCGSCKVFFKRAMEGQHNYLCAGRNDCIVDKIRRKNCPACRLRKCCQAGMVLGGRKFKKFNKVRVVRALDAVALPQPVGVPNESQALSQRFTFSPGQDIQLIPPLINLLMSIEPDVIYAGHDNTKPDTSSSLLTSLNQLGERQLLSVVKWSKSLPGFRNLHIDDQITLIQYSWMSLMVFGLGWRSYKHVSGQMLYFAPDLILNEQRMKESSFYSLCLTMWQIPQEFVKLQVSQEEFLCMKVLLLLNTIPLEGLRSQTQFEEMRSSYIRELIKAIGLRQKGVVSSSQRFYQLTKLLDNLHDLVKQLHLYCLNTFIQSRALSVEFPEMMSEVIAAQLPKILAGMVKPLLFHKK
# Type: functional

molecule	AC50
COC(=O)CCc1ccc(OCC(O)CNC(C)C)cc1 (stereo not given)	> 30 µM
COc1ccc(-c2cc(=S)ss2)cc1	15 µM
Nc1ccc(S(=O)(=O)Nc2ncccn2)cc1	> 10 µM
CCN(C(C)=O)c1cccc(-c2ccnc3c(C#N)cnn23)c1	> 30 µM
CC(=O)OCC1=C(C(=O)O)N2C(=O)[C@@H](NC(=O)Cc3cccs3)[C@H]2SC1	> 30 µM

* * *

# system under test: UniProt Q9Y5N1
# Sequence (Q9Y5N1 whole entry): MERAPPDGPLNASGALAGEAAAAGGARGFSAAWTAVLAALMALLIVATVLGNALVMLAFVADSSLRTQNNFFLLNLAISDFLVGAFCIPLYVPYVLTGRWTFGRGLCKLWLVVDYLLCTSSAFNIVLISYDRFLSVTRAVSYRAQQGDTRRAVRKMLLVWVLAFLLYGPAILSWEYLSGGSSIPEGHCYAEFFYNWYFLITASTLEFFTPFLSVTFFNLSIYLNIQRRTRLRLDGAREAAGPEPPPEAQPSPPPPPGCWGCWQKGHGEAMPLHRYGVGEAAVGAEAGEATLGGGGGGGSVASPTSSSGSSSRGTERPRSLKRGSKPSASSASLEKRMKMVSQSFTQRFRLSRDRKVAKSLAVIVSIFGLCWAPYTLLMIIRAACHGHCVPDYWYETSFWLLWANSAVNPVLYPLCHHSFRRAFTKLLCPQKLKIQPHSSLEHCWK

compound	system under test	AC50
COc1nc(C)nc(Cl)c1N=C1NCCN1 [MOXONIDINE]	UniProt Q9Y5N1	> 30 µM
NCCCCCC(=O)O [AMINOCAPROIC ACID]	UniProt Q9Y5N1	> 10 µM
Oc1cc(Cl)ccc1Oc1ccc(Cl)cc1Cl [TRICLOSAN]	UniProt Q9Y5N1	> 30 µM
CC1=C(CC(=O)O)c2cc(F)ccc2/C1=C\c1ccc([S+](C)[O-])cc1 (centres undefined)	UniProt Q9Y5N1	> 10 µM
CCCCCCOC(=O)NC(=N)c1ccc(NCc2nc3cc(C(=O)N(CCC(=O)OCC)c4ccccn4)ccc3n2C)cc1 [DABIGATRAN ETEXILATE]	UniProt Q9Y5N1	> 30 µM
O=C(c1ccccc1)c1ccc2n1CCC2C(=O)O (centres undefined) [KETOROLAC]	UniProt Q9Y5N1	> 10 µM
O=C1CN=C(c2ccccc2Cl)c2cc([N+](=O)[O-])ccc2N1 [CLONAZEPAM]	UniProt Q9Y5N1	> 10 µM
CCOC(=O)[C@H](CCc1ccccc1)N[C@@H](C)C(=O)N1Cc2ccccc2C[C@H]1C(=O)O	UniProt Q9Y5N1	> 10 µM
Cc1c(C)c2c(c(C)c1O)CCC(C)(COc1ccc(CC3SC(=O)NC3=O)cc1)O2 (centres undefined) [TROGLITAZONE]	UniProt Q9Y5N1	> 30 µM
CC(C(=O)O)c1ccc(C(=O)c2ccccc2)s1 (centres undefined) [TIAPROFENIC ACID]	UniProt Q9Y5N1	> 10 µM
C[C@H](CCC(=O)O)[C@H]1CC[C@H]2[C@@H]3[C@H](O)C[C@@H]4C[C@H](O)CC[C@]4(C)[C@H]3CC[C@]12C [CHENODIOL]	UniProt Q9Y5N1	> 30 µM
CC1(C)O[C@@H]2C[C@H]3[C@@H]4CCC5=CC(=O)C=C[C@]5(C)[C@@]4(F)[C@@H](O)C[C@]3(C)[C@]2(C(=O)CO)O1 [TRIAMCINOLONE ACETONIDE]	UniProt Q9Y5N1	> 30 µM
CS(=O)(=O)Nc1ccc([N+](=O)[O-])cc1Oc1ccccc1 [NIMESULIDE]	UniProt Q9Y5N1	> 30 µM
CCN(CC)C(C)C(=O)c1ccccc1 (centres undefined) [DIETHYLPROPION]	UniProt Q9Y5N1	> 10 µM
C[C@]12CCC(=O)C=C1C=C[C@@H]1[C@@H]2CC[C@@]2(C)[C@H]1CC[C@@]21CCC(=O)O1 [CANRENONE]	UniProt Q9Y5N1	> 30 µM
CC1=C(C(=O)O)N2C(=O)[C@@H](NC(=O)[C@H](N)C3=CCC=CC3)[C@H]2SC1 [CEPHRADINE]	UniProt Q9Y5N1	> 30 µM
CCOc1ccccc1OCCN[C@H](C)Cc1ccc(OC)c(S(N)(=O)=O)c1 [TAMSULOSIN]	UniProt Q9Y5N1	> 10 µM
CC(=O)N1CCN(c2ccc(OCC3COC(Cn4ccnc4)(c4ccc(Cl)cc4Cl)O3)cc2)CC1 (centres undefined) [KETOCONAZOLE]	UniProt Q9Y5N1	> 10 µM
Nc1c2c(nc3ccccc13)CCCC2O (centres undefined) [VELNACRINE]	UniProt Q9Y5N1	> 30 µM
CCCCOC(=O)C(=O)Nc1cccc(-c2nnn[nH]2)c1 [TAZANOLAST]	UniProt Q9Y5N1	> 30 µM
CN1C2CCCC1CC(NC(=O)c1nn(C)c3ccccc13)C2 (centres undefined) [GRANISETRON]	UniProt Q9Y5N1	> 10 µM
CC(=O)OCC(=O)[C@@]1(O)CC[C@H]2[C@@H]3CCC4=CC(=O)CC[C@]4(C)[C@@]3(F)[C@@H](O)C[C@@]21C [FLUDROCORTISONE ACETATE]	UniProt Q9Y5N1	> 30 µM
C[C@]12CCC(=O)C=C1[C@@H]1C[C@@H]1[C@H]1[C@@H]3[C@@H]4C[C@@H]4[C@@]4(CCC(=O)O4)[C@@]3(C)CC[C@@H]12 [DROSPIRENONE]	UniProt Q9Y5N1	> 30 µM
CO[C@@H]1[C@@H](OC(N)=O)[C@@H](O)[C@H](Oc2ccc3c(O)c(NC(=O)c4ccc(O)c(CC=C(C)C)c4)c(=O)oc3c2C)OC1(C)C [NOVOBIOCIN]	UniProt Q9Y5N1	> 30 µM
CCC[C@@]1(CCc2ccccc2)CC(O)=C([C@H](CC)c2cccc(NS(=O)(=O)c3ccc(C(F)(F)F)cn3)c2)C(=O)O1	UniProt Q9Y5N1	> 30 µM
COC(=O)CCc1ccc(OCC(O)CNC(C)C)cc1 (centres undefined) [ESMOLOL]	UniProt Q9Y5N1	> 30 µM
CC(C)CN(C[C@@H](O)[C@H](Cc1ccccc1)NC(=O)O[C@H]1CCOC1)S(=O)(=O)c1ccc(N)cc1	UniProt Q9Y5N1	> 10 µM
CS(=O)(=O)NC(=O)CCC/C=C\C[C@H]1C(=O)C[C@@H](O)[C@@H]1/C=C/[C@@H](O)COc1ccccc1 [SULPROSTONE]	UniProt Q9Y5N1	> 30 µM
Oc1cc(O)c2c(c1)O[C@H](c1ccc(O)c(O)c1)[C@@H](O)C2 [CIANIDANOL]	UniProt Q9Y5N1	> 10 µM
NCC1(CC(=O)O)CCCCC1 [GABAPENTIN]	UniProt Q9Y5N1	> 30 µM
CC1CC(OC(=O)C(O)c2ccccc2)CC(C)(C)C1 (centres undefined) [CYCLANDELATE]	UniProt Q9Y5N1	> 10 µM
CN(C)CCCC1(c2ccc(F)cc2)OCc2cc(C#N)ccc21 (centres undefined) [CITALOPRAM]	UniProt Q9Y5N1	> 10 µM
CN(C)CCC(O)(c1ccccc1)c1ccccc1Cl (centres undefined) [CHLOPHEDIANOL]	UniProt Q9Y5N1	> 10 µM
OCCOCCN1CCN(C(c2ccccc2)c2ccc(Cl)cc2)CC1 (centres undefined) [HYDROXYZINE]	UniProt Q9Y5N1	> 10 µM
